Entry source: PubChem BioAssay (NCI)

# System: MDA-N
# protocol.details: NCI tumour cell line growth inhibition, 48 h
endpoint: TGI

- molecule: "OCC(O)C(O)C(O)C(/C=N\\Nc1ncnc2ccc(Br)cc12)=N/Nc1ncnc2ccc(Br)cc12 (stereo not drawn)"
  result: "> 100 µM"
- molecule: "Cn1ccc(C(=O)NCCCCCNC(=O)c2ccn(C)c(=O)c2O)c(O)c1=O"
  result: "> 100 µM"
- molecule: "COc1cc(-c2nc3nc(N4CCN(C)CC4)ccc3[nH]2)c(OC)c2[nH]c(COC(C)=O)nc12"
  result: "> 100 µM"

---

# Test system: MALME-3M melanoma
# protocol.details: NCI tumour cell line growth inhibition, 48 h
endpoint: GI50

- smiles.code: "CCCCCCCCCCCCCCCCn1cc[n+](Cc2ccccc2)c1C"
  study.target: "MALME-3M melanoma"
  endpoint: "GI50"
  result: "0.809 µM"
- smiles.code: "Cc1ccc(F)cc1NC(=O)c1cc(Cl)ccc1Nc1ccccc1"
  study.target: "MALME-3M melanoma"
  endpoint: "GI50"
  result: "> 100 µM"
- smiles.code: "COc1ccc(-n2c(C)nc3c(c(C)nn3-c3ccccc3)c2=O)cc1"
  study.target: "MALME-3M melanoma"
  endpoint: "GI50"
  result: "15.9 µM"

---

# System: PC-3 prostate
# protocol.details: NCI tumour cell line growth inhibition, 48 h; in the data active means GI50 below about 0.43 µM; inactive means the rest
Possible outcomes: 1 (yes) for active, 0 (no) for inactive

- smiles.code: "COC(=O)[C@@H]1CCCN1C(=O)[C@H]1CCCN1C(=O)[C@@H](Cc1c[nH]c2ccccc12)NC(=S)Nc1cc(C(F)(F)F)cc(C(F)(F)F)c1"
  qualitative.label: "0 (no)"
- smiles.code: "COc1cc2c(cc1OC)-c1c(c3ccc([N+](=O)[O-])cc3c(=O)n1CCCN)C2=O"
  qualitative.label: "0 (no)"
- smiles.code: "COc1cc(-c2n/c(=C\\c3c(O)[nH]c4ccccc34)cc3c2=Nc2ccccc2-3)cc(OC)c1OC"
  qualitative.label: "0 (no)"
- smiles.code: "COc1ccc2c(c1)C(=O)c1c-2n(CCCN2CCOCC2)c(=O)c2cc([N+](=O)[O-])ccc12"
  qualitative.label: "1 (yes)"
- smiles.code: "O=[N+]([O-])/C=C/c1ccc([N+](=O)[O-])cc1"
  qualitative.label: "0 (no)"

---

// reported TGI for each item listed
# Tested on: LOX IMVI melanoma
# protocol.details: NCI tumour cell line growth inhibition, 48 h

- compound: "COc1ccc(/C=C\\c2cc(OC)c(OC)c(OC)c2)cc1OCC(=O)Nc1nc2ccc(OC(F)(F)F)cc2s1"
  TGI: "> 100 µM"
- compound: "N#C[C@H]1Nc2ccccc2[C@@H](O)C1O (some centres not stated)"
  TGI: "> 100 µM"
- compound: "COc1ccc2c(c1)CCCC1C3=NCCC3(C)CSC21 (configuration not stated)"
  TGI: "> 100 µM"
- compound: "Cc1cc(N=C2C=C(Nc3cc(C)on3)C(=O)c3ccccc32)no1"
  TGI: "> 61.5 µM"
- compound: "CN(C)S(=O)(=O)c1ccc(Nc2ccc(O)c3c2C(=O)c2c([N+](=O)[O-])ccc(O)c2C3=O)cc1"
  TGI: "> 100 µM"
- compound: "COc1cc(/C=C2\\C(=O)Nc3ccccc32)cc(OC)c1OC"
  TGI: "> 100 µM"
- compound: "CCOc1cc(C2SCC(=O)N2c2nc3cc4sc(N5C(=O)CSC5c5ccc(O)c(OCC)c5)nc4cc3s2)ccc1O (configuration not stated)"
  TGI: "> 100 µM"
- compound: "Cc1cccc2c1C/C(=C\\c1cccc(C)c1C(=O)O)C2=O"
  TGI: "> 100 µM"
- compound: "COc1cc2c(c(OC)c1OC)-c1ccc(SC)c(=O)cc1C(CC(=O)Oc1cccc(C#N)c1)C2 (configuration not stated)"
  TGI: "> 33.2 µM"
- compound: "NC(=O)c1c2c(cc3c(=O)c4ccccc4[nH]c13)CCCC2"
  TGI: "> 100 µM"
- compound: "CCOC(=O)C(=O)Nc1ccc(Cl)c(C(F)(F)F)c1"
  TGI: "> 100 µM"
- compound: "c1ccc(Nc2nnc(-c3nsc4ccccc34)o2)cc1"
  TGI: "> 100 µM"

---

# Tested on: KM12 colon
# protocol.details: NCI tumour cell line growth inhibition, 48 h
endpoint: TGI

- compound: "C/C=C\\C(CC(=O)NCCC1CN(C(=O)c2ccccc2)c2ccccc21)CC(=O)OC (stereo not given)"
  endpoint: "TGI"
  result: "> 100 µM"
- compound: "NC(=O)CS(=O)CC(N)C(=O)O (stereo not given)"
  endpoint: "TGI"
  result: "> 100 µM"
- compound: "COc1cc(C(SCc2ccccc2)SCc2ccccc2)ccc1O"
  endpoint: "TGI"
  result: "> 10 µM"
- compound: "CN(C)CCNC(=O)c1nc([N+](=O)[O-])cn1C"
  endpoint: "TGI"
  result: "> 100 µM"
- compound: "c1ccc(Nc2nnc(-c3nsc4ccccc34)o2)cc1"
  endpoint: "TGI"
  result: "> 100 µM"
- compound: "CC(C)(C)OC(=O)NCC(=O)N1CCCN(C(=O)CNC(=O)OC(C)(C)C)CC1"
  endpoint: "TGI"
  result: "> 100 µM"
- compound: "CC(=N\\N=C\\c1ccccn1)/C(C)=N/N=C(C)/C(C)=N/N=C(C)/C(C)=N/N=C/c1ccccn1"
  endpoint: "TGI"
  result: "> 100 µM"
- compound: "CC(=O)NC1=C(NCc2ccc(Cl)cc2)C(=O)c2ccccc2C1=O"
  endpoint: "TGI"
  result: "> 50 µM"
- compound: "CC[C@@H]1CC[C@@H]2[C@H](CC[C@]3(C)[C@@H](OS(=O)(=O)c4ccc(C)cc4)CC[C@@H]23)[C@H]1CO"
  endpoint: "TGI"
  result: "> 100 µM"
- compound: "Cc1cc(N=C2C=C(Nc3cc(C)on3)C(=O)c3ccccc32)no1"
  endpoint: "TGI"
  result: "> 100 µM"

---

compounds and their reported TGI
# System: NCI-H460 lung
# protocol.details: NCI tumour cell line growth inhibition, 48 h
endpoint: TGI

- compound: "CN1CCC(n2[nH]c(-c3ccccc3)c(Cc3ccccc3)c2=O)CC1"
  endpoint: "TGI"
  result: "> 100 µM"
- compound: "CC(C)(C)OC(=O)NCC(=O)N1CCCN(C(=O)CNC(=O)OC(C)(C)C)CC1"
  endpoint: "TGI"
  result: "> 100 µM"
- compound: "O=[N+]([O-])c1ccc(Cl)cc1C=NC12CC3CC(CC(C3)C1)C2"
  endpoint: "TGI"
  result: "> 100 µM"
- compound: "c1ccc(C2=C(c3ccccc3)P(c3ccccc3)C2)cc1 (stereo not drawn)"
  endpoint: "TGI"
  result: "> 100 µM"
- compound: "C[Si]12OCCCN(CCO1)CCO2"
  endpoint: "TGI"
  result: "> 100 µM"
- compound: "O=C(O)c1ccc(Nc2nc3ccccc3nc2C(=O)O)cc1"
  endpoint: "TGI"
  result: "> 100 µM"
- compound: "Cc1cc(N=C2C=C(Nc3cc(C)on3)C(=O)c3ccccc32)no1"
  endpoint: "TGI"
  result: "> 100 µM"
- compound: "CC1CCC2(CC1)N=C1CCC(C)CC1C1(CCC(C)CC1)N2 (stereo not drawn)"
  endpoint: "TGI"
  result: "> 100 µM"
- compound: "COc1cc(C(SCc2ccccc2)SCc2ccccc2)ccc1O"
  endpoint: "TGI"
  result: "> 10 µM"
- compound: "C/C=C\\C(CC(=O)NCCC1CN(C(=O)c2ccccc2)c2ccccc21)CC(=O)OC (stereo not drawn)"
  endpoint: "TGI"
  result: "> 100 µM"
- compound: "N#C[C@H]1Nc2ccccc2[C@@H](O)C1O (stereo partly drawn)"
  endpoint: "TGI"
  result: "> 100 µM"
- compound: "CCOc1cc(C2SCC(=O)N2c2nc3cc4sc(N5C(=O)CSC5c5ccc(O)c(OCC)c5)nc4cc3s2)ccc1O (stereo not drawn)"
  endpoint: "TGI"
  result: "> 27.5 µM"
- compound: "COc1ccc(-c2cc(-c3nnc(SCC(=O)Nc4ccc(C(C)=O)cc4)o3)c3ccccc3n2)cc1"
  endpoint: "TGI"
  result: "> 100 µM"

---

# Test system: RXF 393 renal
# protocol.details: NCI tumour cell line growth inhibition, 48 h

- compound: "CCOc1cc(C2SCC(=O)N2c2nc3cc4sc(N5C(=O)CSC5c5ccc(O)c(OCC)c5)nc4cc3s2)ccc1O (configuration not stated)"
  TGI: "> 100 µM"
- compound: "COc1ccc(C(O)/C(=C/n2ccnc2)c2ccccc2)cc1OC (configuration not stated)"
  TGI: "> 100 µM"
- compound: "CC1(C)Cc2c(Br)c(Br)c(Br)c(OCC(O)CN3CCOCC3)c2O1 (configuration not stated)"
  TGI: "13 µM"
- compound: "CC(=O)NC1=CC(=O)c2cc(C)cc(O)c2C1=O"
  TGI: "26.8 µM"
- compound: "CC1(C)[C@@H]2C[C@H]1C(Cc1cccc(C[C@H]3c4cc(-c5ccccn5)ncc4[C@H]4C[C@@H]3C4(C)C)c1)c1cc(-c3ccccn3)ncc12 (some centres not stated)"
  TGI: "> 100 µM"
- compound: "COc1nc2[nH]ccc2c(=O)n1C"
  TGI: "> 100 µM"
- compound: "O=C(c1ccccc1)N1C(=S)N(c2ccc([N+](=O)[O-])cc2)C(=Nc2ccccc2)C1=Nc1ccccc1"
  TGI: "> 100 µM"
- compound: "CC(C)CCC/C(CBr)=C(\\Cl)CCl"
  TGI: "8.17 µM"
- compound: "COc1cc2ncn(-c3cc(OCc4ccccc4S(C)(=O)=O)c(C#N)s3)c2cc1OC"
  TGI: "> 25 µM"
- compound: "CCS(=O)(=O)c1c2cc(OC)ccc2nc2ccc(OC)cc12"
  TGI: "> 100 µM"
- compound: "CO/N=C(/COc1c(-c2ccccc2)oc2ccccc2c1=O)c1ccc(F)cc1"
  TGI: "> 100 µM"
- compound: "COC(=O)C1=Cc2c(cc(OC)c(OC)c2OC)[C@H](c2ccc(OC)c(OC)c2OC)C1C(=O)OC (some centres not stated)"
  TGI: "> 100 µM"
- compound: "Cc1nnc2sc(N/N=C/c3ccccc3)nn12"
  TGI: "> 100 µM"
- compound: "Cn1c(=O)oc2cc(C3CCC(=O)N3Cc3ccc(Cl)cc3)ccc21 (configuration not stated)"
  TGI: "> 100 µM"
- compound: "CCOC(=O)C(C)c1nc2cc(N3CCN(C)CC3)c(F)cc2[nH]c1=O (configuration not stated)"
  TGI: "> 100 µM"
- compound: "Cc1cc(N=C2C=C(Nc3cc(C)on3)C(=O)c3ccccc32)no1"
  TGI: "> 65.9 µM"
- compound: "COc1cc(-c2nc3nc(N4CCN(C)CC4)ccc3[nH]2)c(OC)c2[nH]c(COC(C)=O)nc12"
  TGI: "86.7 µM"
